All values here come from paper PMC4072508.

Can you tell me SPOT signal as a fraction of Bim BH3's signal on the same receptor and array for the items I'm about to list?
assay.system: Bcl-xL, Q07817
Sequence (Q07817 1-209): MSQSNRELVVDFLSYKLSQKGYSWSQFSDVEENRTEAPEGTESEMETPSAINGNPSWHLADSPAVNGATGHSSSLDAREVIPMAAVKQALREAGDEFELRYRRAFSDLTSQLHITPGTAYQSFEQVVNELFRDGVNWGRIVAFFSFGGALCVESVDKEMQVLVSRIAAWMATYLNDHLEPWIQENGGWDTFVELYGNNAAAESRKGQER
method.description: peptide SPOT array, c-Myc-tagged receptor at 1 uM or 100 nM, anti-c-Myc-Cy3
Numbers only.

Sample answers from the record:
• SQATGELADLIQQLSEKFGKNLNKDH [TRPC7] = 0.03
• AGYELLIQKFLSLYGDQIDMHRKFVV [ISOC1] = 0.13
• NKRHRPIGIGVQGLLDAFILMRYPFE [RRM1] = 0.04
• DLTDKLVSFYLETYGAELTANVLRDM [PYCARD] = 0.04
• LNAVNYISTVLADWADNVFFLQLQQA [RINT1] = 0.02

Hello, I would appreciate it if you could give SPOT signal as a fraction of Bim BH3's signal on the same receptor and array for each entry below.
1. RERLRQSGERLRQSGERLRQSGERFK [MURC]
2. VKAVDPTSGQLYGLARELSDEIQVQV [NUP210]
3. DISALTASNLLKKYAEKYSGILEGPV [FIGN]
4. GGRVKLVHSADIQLGDSLSHKGNEFW [WDR60]

1. 0.55
2. 0.02
3. 0.1
4. 0.2

Hello, I would appreciate it if you could give SPOT signal as a fraction of Bim BH3's signal on the same receptor and array for each entry below.
1. SQDFSELSTQLTGVARDLQEEMLPGS [MON1A]
2. PHQFDGVPDKLIQALYQVKYNSKKMK [EVI5]
3. DAIIQMIVELLKRVGDQWEEEQSLAS [C6orf222]
4. NEEGQQFALKLHRLGRTSFRNLKNKR [RIOK2]
5. DNHKKKTVKMLEYLGKDVLHGVFNYL [CASP5]

1: 0.03; 2: 0.48; 3: 0.16; 4: 0.95; 5: 0.28
